Value source: ChEMBL document CHEMBL4673259

assay: Tmax in BALB/c mouse at 1 mg/kg, iv measured up to 24 hrs by LC-MS/MS analysis; assay type: ADME, organism-based; details: in vivo
Property: Tmax; scope: individual compounds
endpoint-label: Tmax

[
  {
    "smiles-notation": "N#Cc1ccc(N2CCN([C@H]3C=C(c4cc5c(N)cc(F)cc5c(=O)[nH]4)CC3)CC2)cc1",
    "endpoint-label": "Tmax",
    "experimental-result": "4.8 min"
  },
  {
    "smiles-notation": "N#Cc1ccc(N2CCN([C@H]3C=C(c4cc5ncccc5c(=O)[nH]4)CC3)CC2)cc1",
    "endpoint-label": "Tmax",
    "experimental-result": "4.8 min"
  },
  {
    "smiles-notation": "N#Cc1ccc(N2CCN(CCCc3cc4c(N)cc(F)cc4c(=O)[nH]3)CC2)cc1",
    "endpoint-label": "Tmax",
    "experimental-result": "4.8 min"
  }
]

====

Recorded clearance by entry
test: Clearance in BALB/c mouse at 1 mg/kg, iv measured up to 24 hrs by LC-MS/MS analysis; format: ADME, organism-based; settings: in vivo
endpoint-label: clearance (mL/min/kg)

[
  {
    "smiles-notation": "N#Cc1ccc(N2CCN([C@H]3C=C(c4cc5ncccc5c(=O)[nH]4)CC3)CC2)cc1",
    "endpoint-label": "clearance",
    "experimental-result": 0.4
  },
  {
    "smiles-notation": "N#Cc1ccc(N2CCN([C@H]3C=C(c4cc5c(N)cc(F)cc5c(=O)[nH]4)CC3)CC2)cc1",
    "endpoint-label": "clearance",
    "experimental-result": 2.2
  },
  {
    "smiles-notation": "N#Cc1ccc(N2CCN(CCCc3cc4c(N)cc(F)cc4c(=O)[nH]3)CC2)cc1",
    "endpoint-label": "clearance",
    "experimental-result": 17
  }
]

====

assay: Protein binding in dog plasma; type: ADME, cell-free, Canis lupus familiaris; conditions: read-out: PPB (converted)

[
  {
    "smiles-notation": "N#Cc1ccc(N2CCN([C@H]3C=C(c4cc5ncccc5c(=O)[nH]4)CC3)CC2)cc1",
    "fraction unbound": 0.125
  }
]

====

assay: Toxicity in rat assessed as NOAEL; settings: in vivo
endpoint-label: NOAEL (mg/kg/day)

[
  {
    "smiles-notation": "N#Cc1ccc(N2CCN([C@H]3C=C(c4cc5ncccc5c(=O)[nH]4)CC3)CC2)cc1",
    "experimental-result": 15
  }
]

====

biological target: UniProt:P05177; test: Inhibition of CYP1A2 (unknown origin) at 10 uM relative to control; type: ADME
Sequence (P05177 whole entry): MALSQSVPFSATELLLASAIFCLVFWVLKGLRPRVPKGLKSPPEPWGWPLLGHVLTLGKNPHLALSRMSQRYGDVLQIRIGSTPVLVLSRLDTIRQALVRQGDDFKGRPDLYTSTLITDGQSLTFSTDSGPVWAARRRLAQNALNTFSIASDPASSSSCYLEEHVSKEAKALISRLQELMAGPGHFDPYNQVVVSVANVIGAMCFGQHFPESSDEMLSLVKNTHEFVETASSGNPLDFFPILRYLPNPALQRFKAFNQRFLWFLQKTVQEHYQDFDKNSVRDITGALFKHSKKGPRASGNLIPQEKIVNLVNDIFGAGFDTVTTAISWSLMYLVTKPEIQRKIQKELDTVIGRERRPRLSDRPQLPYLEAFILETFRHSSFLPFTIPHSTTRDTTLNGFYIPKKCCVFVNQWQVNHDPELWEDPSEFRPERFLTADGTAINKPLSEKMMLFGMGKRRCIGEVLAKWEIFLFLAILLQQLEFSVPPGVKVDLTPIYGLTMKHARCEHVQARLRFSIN
endpoint-label: inhibition at 10 µM

[
  {
    "smiles-notation": "N#Cc1ccc(N2CCN([C@H]3C=C(c4cc5ncccc5c(=O)[nH]4)CC3)CC2)cc1",
    "experimental-result": "≤ 23%"
  }
]

====

biological target: Poly [ADP-ribose] polymerase 1 (Homo sapiens, UniProt P09874); experiment: Inhibition of PARP1 in human MDA-MB-436 cells assessed as inhibition of PARylation at 10 nM incubated for 1 hr by chemiluminescence assay; type: cell-based
Sequence (P09874 whole entry): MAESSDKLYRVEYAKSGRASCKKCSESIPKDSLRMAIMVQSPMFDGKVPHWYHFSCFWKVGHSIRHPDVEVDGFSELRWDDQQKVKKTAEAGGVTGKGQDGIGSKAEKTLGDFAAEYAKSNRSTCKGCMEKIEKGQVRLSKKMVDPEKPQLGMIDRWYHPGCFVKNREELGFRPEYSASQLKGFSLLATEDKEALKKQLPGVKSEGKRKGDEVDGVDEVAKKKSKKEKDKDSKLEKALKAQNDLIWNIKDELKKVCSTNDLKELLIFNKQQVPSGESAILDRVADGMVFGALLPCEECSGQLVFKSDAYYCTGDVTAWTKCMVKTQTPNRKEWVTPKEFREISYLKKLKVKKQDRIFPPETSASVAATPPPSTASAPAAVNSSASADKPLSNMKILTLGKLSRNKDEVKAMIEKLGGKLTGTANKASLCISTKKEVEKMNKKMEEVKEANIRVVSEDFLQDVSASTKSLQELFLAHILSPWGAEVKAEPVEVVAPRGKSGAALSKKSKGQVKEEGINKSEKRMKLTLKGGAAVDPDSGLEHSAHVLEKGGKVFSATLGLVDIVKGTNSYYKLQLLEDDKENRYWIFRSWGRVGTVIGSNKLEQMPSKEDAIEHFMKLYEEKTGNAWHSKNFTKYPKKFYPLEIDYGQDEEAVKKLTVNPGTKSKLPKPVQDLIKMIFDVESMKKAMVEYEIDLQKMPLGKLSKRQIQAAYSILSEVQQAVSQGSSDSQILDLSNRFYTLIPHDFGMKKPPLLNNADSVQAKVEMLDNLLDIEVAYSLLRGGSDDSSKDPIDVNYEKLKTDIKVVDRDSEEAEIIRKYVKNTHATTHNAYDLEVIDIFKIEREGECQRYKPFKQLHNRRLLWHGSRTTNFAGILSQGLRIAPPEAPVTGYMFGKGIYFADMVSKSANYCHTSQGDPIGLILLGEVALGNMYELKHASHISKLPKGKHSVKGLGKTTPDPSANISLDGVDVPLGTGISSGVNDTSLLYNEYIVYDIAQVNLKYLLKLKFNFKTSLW

[
  {
    "smiles-notation": "N#Cc1ccc(N2CCN([C@H]3C=C(c4cc5c(N)cc(F)cc5c(=O)[nH]4)CC3)CC2)cc1",
    "target-of-assay": "Poly [ADP-ribose] polymerase 1 (Homo sapiens, UniProt P09874)",
    "inhibition (%)": 92
  },
  {
    "smiles-notation": "N#Cc1ccc(N2CCN([C@H]3C=C(c4cc5ncccc5c(=O)[nH]4)CC3)CC2)nc1",
    "target-of-assay": "Poly [ADP-ribose] polymerase 1 (Homo sapiens, UniProt P09874)",
    "inhibition (%)": 92
  },
  {
    "smiles-notation": "N#Cc1ccc(N2CCN([C@H]3C=C(c4cc5c(N)cccc5c(=O)[nH]4)CC3)CC2)cc1",
    "target-of-assay": "Poly [ADP-ribose] polymerase 1 (Homo sapiens, UniProt P09874)",
    "inhibition (%)": 92
  },
  {
    "smiles-notation": "CNC(=O)c1ccc(N2CCN(CCCc3cc4c(N)cc(F)cc4c(=O)[nH]3)CC2)cc1",
    "target-of-assay": "Poly [ADP-ribose] polymerase 1 (Homo sapiens, UniProt P09874)",
    "inhibition (%)": 62
  },
  {
    "smiles-notation": "N#Cc1ccc(N2CCN([C@@H]3C=C(c4cc5c(N)cc(F)cc5c(=O)[nH]4)CC3)CC2)cc1",
    "target-of-assay": "Poly [ADP-ribose] polymerase 1 (Homo sapiens, UniProt P09874)",
    "inhibition (%)": 40
  },
  {
    "smiles-notation": "N#Cc1ccc(N2CCN([C@@H]3C=C(c4cc5c(N)cccc5c(=O)[nH]4)CC3)CC2)cc1",
    "target-of-assay": "Poly [ADP-ribose] polymerase 1 (Homo sapiens, UniProt P09874)",
    "inhibition (%)": 83
  },
  {
    "smiles-notation": "N#Cc1ccc(N2CCN(CCCc3cc4c(N)cccc4c(=O)[nH]3)CC2)cc1",
    "target-of-assay": "Poly [ADP-ribose] polymerase 1 (Homo sapiens, UniProt P09874)",
    "inhibition (%)": 93
  },
  {
    "smiles-notation": "Nc1cc(F)cc2c(=O)[nH]c(CCCN3CCN(c4ccc(F)cc4)CC3)cc12",
    "target-of-assay": "Poly [ADP-ribose] polymerase 1 (Homo sapiens, UniProt P09874)",
    "inhibition (%)": 68
  },
  {
    "smiles-notation": "N#Cc1ccc(N2CCN(CCCc3cc4c(N)cc(F)cc4c(=O)[nH]3)CC2)cc1",
    "target-of-assay": "Poly [ADP-ribose] polymerase 1 (Homo sapiens, UniProt P09874)",
    "inhibition (%)": 86
  }
]
